SYSTEM: human GLP-1 receptor (human, UniProt P43220 24-463)
MEASUREMENT DESCRIPTION: cell-based or functional assay
*1 amine or outer side, *2 acyl side, *3 side chain or, on linkers, in order; H or OH if unused. Where no end group is shown, it is not given here. Side-chain parts run from the residue outwards. [ ]: non-standard residue; d: D form. The star is where a group is joined. C20 diacid = O=C(O)CCCCCCCCCCCCCCCCCCC(=O)*; C18 diacid = O=C(O)CCCCCCCCCCCCCCCCC(=O)*; γGlu = O=C(O)[C@H](CCC(=O)[*:2])N[*:1]; Aib = CC(C)(N)C(=O)O
OUTCOME MEASURE: EC50, CreLuc reporter, 100% hP

>>> endpoint_result("YXEGTFTSDYSIXLEKQAQXAFLRHLINKXTRQRY (Aib at 2, 13, 20, 30; Lys29 epsilon-amino acylated with C18DA-gGlu-gGlu-gGlu-gGlu-gGlu-gGlu-eLys; C-terminal amide) [Compound 37]")
"9.1 nM"
>>> endpoint_result("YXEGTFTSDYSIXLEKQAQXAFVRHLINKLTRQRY (Aib at 2, 13, 20; Lys29 epsilon-amino acylated with C20DA-gGlu-gGlu-gGlu-gGlu-gGlu-gGlu-eLys; C-terminal amide) [Compound 27]")
"20.8 nM"
>>> endpoint_result("Y[Aib]EGTFTSDYSI[Aib]LEKQAQ[Aib]AFVRHLINK([γGlu-γGlu-γGlu-γGlu-C18 diacid])[Aib]TRQRY-NH2 [Compound 77]")
"1.8 nM"
>>> endpoint_result("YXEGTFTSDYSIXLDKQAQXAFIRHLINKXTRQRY (Aib at 2, 13, 20, 30; Lys29 epsilon-amino acylated with C20DA-gGlu-gGlu-gGlu-gGlu-gGlu-gGlu-eLys; C-terminal amide) [Compound 81]")
"3.8 nM"

We next turn to a different binder, shown below.
[Q] Request the reported EC50, CreLuc reporter, 100% hP associated with Y[Aib]EGTFTSDYSI[Aib]LEKQAQ[Aib]AFVRHLINK([γGlu-γGlu-γGlu-γGlu-γGlu-γGlu-C20 diacid])[Aib]TRQRY-NH2 [Compound 3]
[A] 13.9 nM
